# Tested on: NCI-H23 lung
# assay text: NCI tumour cell line growth inhibition, 48 h
Where a SMILES comes first, the peptide text is derived from it. The star is where a group is joined. Cbz = O=C(OCc1ccccc1)*
reported metric: TGI

Record excerpt, results attached:
molecule | endpoint result
Nc1ncc(CN2CCOCC2)c(-c2ccccc2O)n1 | > 100 µM
CCOC(=O)C(CC(=O)OC)NC(=O)C(CC(=O)OC)NC(=O)C(CC(=O)OC)NC(=O)C(CC(=O)OC)NC(=O)OCc1ccccc1 (stereo not given) (Cbz-D(OMe)D(OMe)D(OMe)D(OMe)-OEt; configuration not given here) | > 100 µM
COc1ccc([C@H](NC(=O)c2ccccc2)[C@@H](O)C(=O)O[C@H]2C[C@@]3(O)C(OC(=O)c4ccccc4)C4[C@](C)(C(=O)[C@H](OC(C)=O)C(=C2C)C3(C)C)[C@@H](O)C[C@H]2OC[C@@]42OC(C)=O)cc1 (stereo not given in full) | > 10 µM
O=[N+]([O-])c1ccc(NC(=S)Nc2ccccn2)cc1 | > 100 µM
CN(C)c1ccc(N=Nc2cccc3ncccc23)cc1 | > 100 µM
N#CN1CCC=C(c2cc3ccccc3[nH]2)C1 | > 448 µM
COC(=O)C(CC(=O)Nc1ccc(Cl)c(Cl)c1)C(=O)C(=O)NC1C2CC3CC(C2)CC1C3 (stereo not given) | > 100 µM
Fc1ccc(Nc2nnc(-c3ccccn3)s2)cc1 | > 100 µM

Need TGI for each of these molecules.
1. COc1ccc(CCc2ccccc2CC(=O)O)cc1
2. CN(C)CCNC(=O)c1cc(-c2nccn2C)nc2ccccc12
3. COc1ccc2c(c1)OC(N)=C(C#N)C2c1ccc(F)cc1 (stereo not given)
4. O=C(NCCN1CCCC1)c1cn2c(ccc3sc4ccccc4c(=O)c32)n1
5. Nc1cccc(C#Cc2cccc(C#Cc3cccc(N)n3)n2)n1
6. CC(C)(C)N(Cc1ccoc1)C(=O)/C=C\S(=O)c1ccccc1 (stereo not given)

Reply:
1: > 100 µM; 2: > 100 µM; 3: > 100 µM; 4: 32.4 µM; 5: > 100 µM; 6: 32.3 µM

Task item: Tell me the measured TGI of CCCCCCCCCC1CC(=O)NCC(=O)NC(C(C)C)C(=O)NC(CC(C)C)C(=O)NC(C)C(=O)NC(C(C)C)C(=O)O1 (stereo not given) , please.
Reply: 42.2 µM
